The reported numbers originate from paper PMC6770063.

# tested_on: α-Glucosidase (Saccharomyces cerevisiae)
# protocol_details: Binding kinetics by reaction progress curve analysis
# Assay type: biochemical
# experimental_conditions: progress curve analysis; read-out: Ki* (final equilibrium dissociation constant, true affinity)
outcome_measure: pKi
Numbers only, as −log10 of the molar value.

O=C(O[C@@H]1Cc2c(O)cc(O)cc2O[C@@H]1c1ccc(O)c(O)c1)c1cc(O)c(O)c(O)c1 [ECG, Epicatechin gallate]	6.00

Turning now to a further compound:
(Q) # value lookup — system α-Glucosidase (Saccharomyces cerevisiae), readout pKi, item O=C(O[C@@H]1Cc2c(O)cc(O)cc2O[C@@H]1c1cc(O)c(O)c(O)c1)c1cc(O)c(O)c(O)c1 [EGCG, epigallocatechin gallate]
(A) 6.80
